Here the recorded Average response is given for each entry.
system-tested: Drosophila OR71a (Drosophila melanogaster)
Construct: expressed in transfected cells
assay-notes: Calcium ion fluorescence (GCaMP6) assay, OR71a stable HEK293 cell line
Format: cell-based
recorded-conditions: OR71a cell line; cc. 100 µM; VUAA1-normalized response, mean of biological replicates
Give a plain numeric answer without units written out.

Example cases with answers are listed next.
Task item: Consider the compound Cc1ccc(O)cc1 and give its recorded Average response.
Reply: 0.00

Task item: Consider the compound C=CC(O)CCCCC (centres unmarked) and give its recorded Average response.
Reply: 0.0555

New cases:
Task item: Consider the compound COc1cccc(OC)c1 and give its recorded Average response.
Reply: 0.00

Task item: Consider the compound CC1=CCC2CC1C2(C)C (centres unmarked) and give its recorded Average response.
Reply: 0.00

Task item: Consider the compound CCCCCO and give its recorded Average response.
Reply: 0.00

Task item: Consider the compound CCCCCC(C)O (centres unmarked) and give its recorded Average response.
Reply: 0.16

Task item: Consider the compound C=C1[C@H]2CC[C@@H]3[C@H]2C(C)(C)CCC[C@]13C [(+)-longifolene] and give its recorded Average response.
Reply: 0.0431

Task item: Consider the compound CCCCCCCCCCCCCC and give its recorded Average response.
Reply: 0.0462

###

system-tested: Drosophila OR71a (Drosophila melanogaster)
Construct: expressed in transfected cells
Sequence (Q9VUK5 1-378): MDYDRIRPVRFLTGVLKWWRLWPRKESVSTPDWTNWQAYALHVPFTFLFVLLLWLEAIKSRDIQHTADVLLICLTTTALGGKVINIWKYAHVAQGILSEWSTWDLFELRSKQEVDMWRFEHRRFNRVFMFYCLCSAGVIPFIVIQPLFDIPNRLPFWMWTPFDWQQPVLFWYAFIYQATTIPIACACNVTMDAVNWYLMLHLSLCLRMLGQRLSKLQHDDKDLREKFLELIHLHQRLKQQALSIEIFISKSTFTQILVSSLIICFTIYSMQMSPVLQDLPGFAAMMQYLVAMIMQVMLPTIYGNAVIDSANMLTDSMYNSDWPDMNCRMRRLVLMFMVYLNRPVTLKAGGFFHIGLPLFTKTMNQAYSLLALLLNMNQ
Sequence (Q9VNB5 1-486 partner): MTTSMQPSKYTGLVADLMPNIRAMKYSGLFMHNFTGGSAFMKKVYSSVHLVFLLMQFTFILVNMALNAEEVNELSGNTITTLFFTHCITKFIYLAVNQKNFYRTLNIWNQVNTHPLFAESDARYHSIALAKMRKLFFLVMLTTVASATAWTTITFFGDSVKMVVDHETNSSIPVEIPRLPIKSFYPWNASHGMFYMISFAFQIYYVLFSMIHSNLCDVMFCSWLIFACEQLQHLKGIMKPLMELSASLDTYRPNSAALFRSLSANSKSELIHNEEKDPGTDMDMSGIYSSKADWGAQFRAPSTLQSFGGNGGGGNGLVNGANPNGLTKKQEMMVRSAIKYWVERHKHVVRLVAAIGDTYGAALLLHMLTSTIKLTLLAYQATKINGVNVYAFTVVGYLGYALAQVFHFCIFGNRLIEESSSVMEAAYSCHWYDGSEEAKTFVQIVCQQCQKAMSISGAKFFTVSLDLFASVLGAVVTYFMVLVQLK
assay-notes: Calcium ion fluorescence (GCaMP6) assay, OR71a stable HEK293 cell line
Assay type: cell-based
recorded-conditions: OR71a cell line; cc. 10 µM; VUAA1-normalized response, mean of biological replicates
readout-type: Average response

Task item: Consider the compound C=C(C)C1CCC2(C)OC2C1 (single isomer, unassigned; (+)) [(+)-limonene oxide] and give its recorded Average response.
Reply: 0.0256

Task item: Consider the compound CCOC(=O)c1ccccc1 [ethyl benzoate] and give its recorded Average response.
Reply: 0.0554

Task item: Consider the compound CC(=O)OCCC(C)C [isopentyl acetate] and give its recorded Average response.
Reply: 0.037

Task item: Consider the compound CCCCCCCO and give its recorded Average response.
Reply: 0.00

Task item: Consider the compound CCCCCCCCCC=O and give its recorded Average response.
Reply: 0.00

New cases:
Task item: Consider the compound Cc1ccc(O)cc1 and give its recorded Average response.
Reply: 0.00

Task item: Consider the compound CC/C=C/CCO and give its recorded Average response.
Reply: 0.0432

Task item: Consider the compound C=C1CC[C@H]2O[C@]2(C)CC[C@@H]2[C@@H]1CC2(C)C [(-)-caryophyllene oxide] and give its recorded Average response.
Reply: 0.00
